System: Plasmodium berghei
Test: Screen against P. berghei liver stage (PbLuc), transformed with Luciferase, at 10uM
Type: functional, HepG2
Conditions: tested at 10 uM
Hit rate of the full screen: of about 69,000 compounds, about 8,600 (12%) showed an effect of 50% or more. The full list was thinned out, with strong results kept by preference.

>  <molecule>
Cc1nn(C)c(C)c1C1CCCN1C(=O)CCCc1ccccn1 (configuration not stated)

>  <unitName>
%

>  <INHIBITION>
23.4

$$$$
>  <molecule>
CCc1nc(CN2CCN(C(=O)Cc3c(C)noc3C)CC2)cs1

>  <unitName>
%

>  <INHIBITION>
50.4

$$$$
>  <molecule>
O=C(Nc1cccnc1)NC(CCCO)c1ccccc1 (configuration not stated)

>  <unitName>
%

>  <INHIBITION>
14.1

$$$$
>  <molecule>
Cc1nc2ccc(C(=O)N3CCn4c(C)nnc4C3)cc2nc1C

>  <unitName>
%

>  <INHIBITION>
1.56

$$$$
>  <molecule>
COc1ncccc1C(=O)N1CCCC(n2ccnc2)C1 (configuration not stated)

>  <unitName>
%

>  <INHIBITION>
-5

$$$$
>  <molecule>
Cc1ccccc1-c1cc(C(=O)N2CCCC(n3ccnc3C)C2)[nH]n1 (configuration not stated)

>  <unitName>
%

>  <INHIBITION>
66.7

$$$$
>  <molecule>
Cc1noc(C)c1CCC(=O)N1CCCN(Cc2cscn2)CC1

>  <unitName>
%

>  <INHIBITION>
-5.51

$$$$
>  <molecule>
Fc1cccc(C2CCCCN2Cc2nc(-c3cnccn3)no2)c1 (configuration not stated)

>  <unitName>
%

>  <INHIBITION>
-12.6

$$$$
>  <molecule>
CC(C)c1ocnc1C(=O)N1CCC(=O)Nc2cccnc21

>  <unitName>
%

>  <INHIBITION>
4.13

$$$$
>  <molecule>
c1ccc(-c2cc(CN3CCCCCC3c3ccco3)on2)nc1 (configuration not stated)

>  <unitName>
%

>  <INHIBITION>
-15

$$$$
>  <molecule>
CN1CCN(C(=O)c2n[nH]c3c2CN(C2CCOC2)CC3)CC1 (configuration not stated)

>  <unitName>
%

>  <INHIBITION>
22.3

$$$$
>  <molecule>
O=C(NCC1CC1)[C@@H]1CCO[C@@H]2CCN(c3ncccn3)C[C@@H]21

>  <unitName>
%

>  <INHIBITION>
44.2

$$$$
>  <molecule>
CC1CCN(CCNC(=O)C(C)n2cncn2)CC1 (configuration not stated)

>  <unitName>
%

>  <INHIBITION>
22.3

$$$$
>  <molecule>
Nc1cc2c(nn1)CCN(C(=O)c1cccc3c1OCCO3)C2

>  <unitName>
%

>  <INHIBITION>
44.2

$$$$
>  <molecule>
Cc1noc(C)c1CCC(=O)N1CCCN(CC(N)=O)CC1

>  <unitName>
%

>  <INHIBITION>
37.95

$$$$
>  <molecule>
Cc1noc(C)c1CC(=O)N1CCCN(Cc2cscn2)CC1

>  <unitName>
%

>  <INHIBITION>
57.4

$$$$
>  <molecule>
CNC(=O)C1(c2cnccn2)CCCN1C(=O)c1c(F)cccc1F (configuration not stated)

>  <unitName>
%

>  <INHIBITION>
34

$$$$
>  <molecule>
Cc1c(Br)cccc1C(=O)NCCC1CCCNC1 (configuration not stated)

>  <unitName>
%

>  <INHIBITION>
28.6

$$$$
>  <molecule>
CN(C)C(=O)[C@@H]1CCO[C@@H]2CCN(Cc3ccccc3)C[C@@H]21

>  <unitName>
%

>  <INHIBITION>
-11.5

$$$$
>  <molecule>
COc1cc2cc(C(=O)O)n(C)c2c(OC)c1OC

>  <unitName>
%

>  <INHIBITION>
-9.48

$$$$
>  <molecule>
CC(C)c1cc(NC(=O)CNC2CCc3nc(C(C)C)nn3C2)on1 (configuration not stated)

>  <unitName>
%

>  <INHIBITION>
35.7

$$$$
>  <molecule>
CCCn1nc2c(cc1=O)CN(Cc1nc(C)c(C)o1)CC2

>  <unitName>
%

>  <INHIBITION>
14.1

$$$$
>  <molecule>
Cc1noc(C)c1CN(C)c1nc(C2CCCC2)nc2c1cnn2C

>  <unitName>
%

>  <INHIBITION>
20

$$$$
>  <molecule>
CCc1cc(CN2CCCCC2c2ccc(F)cc2)on1 (configuration not stated)

>  <unitName>
%

>  <INHIBITION>
65.7

$$$$
>  <molecule>
Cc1cnc(C(=O)N2CCCC(c3c(C)c(=O)nc4n3CCC4)C2)cn1 (configuration not stated)

>  <unitName>
%

>  <INHIBITION>
-17.7

$$$$
>  <molecule>
Cn1ccnc1N1CCN(C(=O)Cc2ccc(Cl)cc2)CC1

>  <unitName>
%

>  <INHIBITION>
-17.2

$$$$
>  <molecule>
Cc1nccn1C1CCCN(C(=O)c2cc(O)nc3ccccc23)C1 (configuration not stated)

>  <unitName>
%

>  <INHIBITION>
52.7

$$$$
>  <molecule>
CC(C)c1nccn1C1CCCN(C(=O)c2ccc3c(c2)COC3)C1 (configuration not stated)

>  <unitName>
%

>  <INHIBITION>
-49.5

$$$$
>  <molecule>
OC1(CN2CCN(c3cccc(C(F)(F)F)c3)CC2)CNCCOC1 (configuration not stated)

>  <unitName>
%

>  <INHIBITION>
41.5

$$$$
>  <molecule>
Cc1nccn1C1CCCN(C(=O)c2ccc3c(c2)COC3)C1 (configuration not stated)

>  <unitName>
%

>  <INHIBITION>
57.8

$$$$
>  <molecule>
CCC(=O)Nc1ccc(N2CCC(OC)CC2)c(C(F)(F)F)c1

>  <unitName>
%

>  <INHIBITION>
45.1

$$$$
>  <molecule>
O=C1COc2ccc(C(=O)N3CCCC(n4ccnc4)C3)cc2N1 (configuration not stated)

>  <unitName>
%

>  <INHIBITION>
-12.2

$$$$
>  <molecule>
CN(C)C(=O)CO[C@H]1CN(Cc2ccccc2)[C@@H]2CCCO[C@H]12

>  <unitName>
%

>  <INHIBITION>
3.3

$$$$
>  <molecule>
Fc1ccc(C2CCCCN2Cc2cc(-c3ccccn3)no2)cc1 (configuration not stated)

>  <unitName>
%

>  <INHIBITION>
51.8

$$$$
>  <molecule>
Cc1cc(C(=O)N2CCc3nnc(N)cc3C2)c(C)n1C1CC1

>  <unitName>
%

>  <INHIBITION>
-15.8

$$$$
>  <molecule>
Cc1nn(-c2ccccc2)cc1C(=O)N1CCCC(n2ccnc2C)C1 (configuration not stated)

>  <unitName>
%

>  <INHIBITION>
27.6

$$$$
>  <molecule>
Cc1noc(C)c1-c1cncc(CC2CCN(C(=O)c3cc[nH]n3)C2)n1 (configuration not stated)

>  <unitName>
%

>  <INHIBITION>
22

$$$$
>  <molecule>
COc1cc(C)ccc1OCC(=O)NS(=O)(=O)c1ccc(Br)s1

>  <unitName>
%

>  <INHIBITION>
-2.19

$$$$
>  <molecule>
CCCc1cc(C(=O)N2CCCC(n3ccnc3C)C2)[nH]n1 (configuration not stated)

>  <unitName>
%

>  <INHIBITION>
10.8

$$$$
>  <molecule>
Cc1cc(CCC(=O)Nc2nncs2)nc(C2CCCN2)n1 (configuration not stated)

>  <unitName>
%

>  <INHIBITION>
5.11

$$$$
>  <molecule>
CC(=O)N(C)Cc1cccc(NC(=O)CCCc2nc(C(C)C)no2)c1

>  <unitName>
%

>  <INHIBITION>
-32.9

$$$$
>  <molecule>
COc1ncccc1C(=O)N1CCCC(n2ccnc2C)C1 (configuration not stated)

>  <unitName>
%

>  <INHIBITION>
54.7

$$$$
>  <molecule>
COc1cc2cc(C(=O)NCC(=O)O)n(C)c2c(OC)c1OC

>  <unitName>
%

>  <INHIBITION>
57.3

$$$$
>  <molecule>
CCOC(=O)C1(O)CCN(C(=O)Nc2ccc(CC)cc2)CC1

>  <unitName>
%

>  <INHIBITION>
-62.8

$$$$
>  <molecule>
COCCOc1ncccc1C(=O)N1CCCC(n2ccnc2C)C1 (configuration not stated)

>  <unitName>
%

>  <INHIBITION>
-19.9

$$$$
>  <molecule>
O=C(CCOc1ccccc1F)N1CCOCC1

>  <unitName>
%

>  <INHIBITION>
48.2

$$$$
>  <molecule>
CN(C)C[C@@H]1CCC[C@@H]2CN(c3nccc(C(F)(F)F)n3)C[C@@H]21

>  <unitName>
%

>  <INHIBITION>
-3.58

$$$$
